From: patent US20070117743A1

The entries below are paired with their reported GI50.
# System: IGROV-1
# test details: SRB colorimetric assay of cell growth and viability, IGROV-1
# Assay type: cell-based, human
# test parameters: 48 hours exposure, SRB
measurement label: GI50

[[record]]
compound = "C/C=C1\\NC(=O)[C@H](Cc2ccccc2)N(C)C(=O)[C@@H](C(C)C)NC(=O)[C@@H]([C@@H](C)CC)NC(=O)[C@H](NC(=O)[C@H](NC(=O)[C@H](CCCN)NC(=O)[C@H]2CCCN2C(=O)[C@H](NC(=O)[C@@H](NC(=O)[C@@H](NC(=O)[C@H](NC(=O)CC[C@@H](C)CC)C(C)C)[C@@H](C)O)C(C)C)C(C)C)[C@@H](C)CC)[C@@H](C)OC(=O)[C@H](C(C)C)NC1=O [Compound 80, [NMePhe^3, (4S)-MeHex^14]-KF]"
measurement_label = "GI50"
measurement = "416 nM"

[[record]]
compound = "C/C=C1\\NC(=O)[C@H](Cc2ccccc2)NC(=O)[C@@H](C(C)C)NC(=O)[C@@H]([C@@H](C)CC)NC(=O)[C@H](NC(=O)[C@H](NC(=O)[C@H](CCCN)NC(=O)[C@H]2CCCCN2C(=O)[C@H](NC(=O)[C@@H](NC(=O)[C@@H](NC(=O)[C@H](NC(=O)CC[C@@H](C)CC)C(C)C)[C@@H](C)O)C(C)C)C(C)C)[C@@H](C)CC)[C@@H](C)OC(=O)[C@H](C(C)C)NC1=O [Compound 60, [D-Pip^9, (4S)-MeHex^14]-KF]"
measurement_label = "GI50"
measurement = "1240 nM"


====

The entries below are paired with their reported log10(GI50).
# System: IGROV-ET
# test details: SRB colorimetric assay of cell growth and viability, IGROV-ET
# Format: cell-based, human
# test parameters: 48 hours exposure
Where a SMILES comes first, the peptide text is derived from it. Bridges are numbered along the chain shown (N, C = ends). [ ]: non-standard residue; d: D form. The star is where a group is joined. d(aIle) = CC[C@H](C)[C@@H](N)C(=O)O; d(aThr) = C[C@@H](O)[C@@H](N)C(=O)O; Hexanoyl(5-Me) = CC(C)CCCC(=O)*; Orn = NCCC[C@H](N)C(=O)O; Dhb = C/C=C(\N)C(=O)O
measurement label: log10(GI50) (log10 of the value in nM)

[[record]]
compound = "C/C=C1\\NC(=O)[C@H](Cc2ccccc2)NC(=O)[C@@H](C(C)C)NC(=O)[C@@H]([C@@H](C)CC)NC(=O)[C@H](NC(=O)[C@H](NC(=O)[C@H](CCCN)NC(=O)[C@H]2CCCN2C(=O)[C@H](NC(=O)[C@@H](NC(=O)[C@@H](NC(=O)[C@H](NC(=O)CC[C@H](C)CC)C(C)C)[C@@H](C)O)C(C)C)C(C)C)[C@@H](C)CC)[C@@H](C)OC(=O)[C@H](C(C)C)NC1=O [Compound 16, [(4R)-MeHex^14]-KF]"
measurement_label = "log10(GI50)"
measurement = 2.91

[[record]]
compound = "C/C=C1\\NC(=O)[C@H](Cc2ccccc2)NC(=O)[C@@H](C(C)C)NC(=O)[C@@H]([C@@H](C)CC)NC(=O)[C@H](NC(=O)[C@H](NC(=O)[C@H](CCCN)NC(=O)[C@H]2CCCN2C(=O)[C@H](NC(=O)[C@@H](NC(=O)[C@@H](NC(=O)[C@@H](CC2CCCCC2)NC(=O)CCCC(C)C)[C@@H](C)O)C(C)C)C(C)C)[C@@H](C)CC)[C@@H](C)OC(=O)[C@H](C(C)C)NC1=O [Compound 8, [D-Cha^13]-KF]"
measurement_label = "log10(GI50)"
measurement = 2.81

[[record]]
compound = "C/C=C1\\NC(=O)[C@H](Cc2ccccc2)NC(=O)[C@@H](C(C)C)NC(=O)[C@@H]([C@@H](C)CC)NC(=O)[C@H](NC(=O)[C@H](NC(=O)[C@H](CCCN)NC(=O)[C@H]2CCCN2C(=O)[C@H](NC(=O)[C@@H](NC(=O)[C@@H](NC(=O)[C@@H](C)NC(=O)CCCC(C)C)[C@@H](C)O)C(C)C)C(C)C)[C@@H](C)CC)[C@@H](C)OC(=O)[C@H](C(C)C)NC1=O [Compound 34, [D-Ala^13]-KF]"
measurement_label = "log10(GI50)"
measurement = 3.20

[[record]]
compound = "C/C=C1\\NC(=O)[C@H](Cc2ccccc2)NC(=O)[C@@H](C(C)C)NC(=O)[C@@H]([C@@H](C)CC)NC(=O)[C@H](NC(=O)[C@H](NC(=O)[C@H](CCCN)NC(=O)[C@H]2CCCN2C(=O)[C@H](NC(=O)[C@@H](NC(=O)[C@H](CCC(=O)O)NC(=O)CCCC(C)C)C(C)C)C(C)C)[C@@H](C)CC)[C@@H](C)OC(=O)[C@H](C(C)C)NC1=O [Compound 56, [Glu^12, noD-Val^13]-KF] ({Hexanoyl(5-Me)}-EV[dV][dP][Orn][d(aIle)][d(aThr)][d(aIle)][dV]F[Dhb]V; ester 7-C)"
measurement_label = "log10(GI50)"
measurement = 3.14

[[record]]
compound = "C/C=C1\\NC(=O)[C@H](Cc2ccccc2)NC(=O)[C@@H](C(C)C)NC(=O)[C@@H](C(C)C)NC(=O)[C@H](NC(=O)[C@H](NC(=O)[C@H](CCCN)NC(=O)[C@H]2CCCN2C(=O)[C@H](NC(=O)[C@@H](NC(=O)[C@@H](NC(=O)[C@H](NC(=O)CCCC(C)C)C(C)C)[C@@H](C)O)C(C)C)C(C)C)C(C)C)[C@@H](C)OC(=O)[C@H](C(C)C)NC1=O [Compound 12, [D-Val^5, D-Val^7]-KF] ({Hexanoyl(5-Me)}-[dV]TV[dV][dP][Orn][dV][d(aThr)][dV][dV]F[Dhb]V; ester 8-C)"
measurement_label = "log10(GI50)"
measurement = 3.25

[[record]]
compound = "C/C=C1\\NC(=O)[C@H](Cc2ccccc2)NC(=O)[C@@H](C(C)C)NC(=O)[C@@H]([C@@H](C)CC)NC(=O)[C@H](NC(=O)[C@H](NC(=O)[C@H](CCCN)NC(=O)[C@H]2CCCN2C(=O)[C@H](NC(=O)[C@@H](NC(=O)[C@@H](NC(=O)[C@@H](NC(=O)CCCC(C)C)C(C)C)[C@@H](C)O)C(C)C)C(C)C)[C@@H](C)CC)[C@@H](C)OC(=O)[C@H](C(C)C)NC1=O [Compound 38, [Val^13]-KF]"
measurement_label = "log10(GI50)"
measurement = 3.29

[[record]]
compound = "C/C=C1\\NC(=O)[C@H](Cc2ccccc2)NC(=O)[C@@H](C(C)C)NC(=O)[C@@H]([C@@H](C)CC)NC(=O)[C@H](NC(=O)[C@H](NC(=O)[C@H](CCCN)NC(=O)[C@H]2CCCN2C(=O)[C@H](NC(=O)[C@@H](NC(=O)[C@@H](NC(=O)[C@H](NC(=O)CCCCC(C)=O)C(C)C)[C@@H](C)O)C(C)C)C(C)C)[C@@H](C)CC)[C@@H](C)OC(=O)[C@H](C(C)C)NC1=O [Compound 27, [6-OHep^14]-KF]"
measurement_label = "log10(GI50)"
measurement = 3.83

[[record]]
compound = "C/C=C1\\NC(=O)[C@H](Cc2ccccc2)NC(=O)[C@@H](C(C)C)NC(=O)[C@@H]([C@@H](C)CC)NC(=O)[C@H](NC(=O)[C@H](NC(=O)[C@H](CCCN)NC(=O)[C@H]2CCCN2C(=O)[C@H](NC(=O)[C@H](C)NC(=O)[C@@H](NC(=O)[C@H](NC(=O)CCCC(C)C)C(C)C)[C@@H](C)O)C(C)C)[C@@H](C)CC)[C@@H](C)OC(=O)[C@H](C(C)C)NC1=O [Compound 44, [Ala^11]-KF] ({Hexanoyl(5-Me)}-[dV]TA[dV][dP][Orn][d(aIle)][d(aThr)][d(aIle)][dV]F[Dhb]V; ester 8-C)"
measurement_label = "log10(GI50)"
measurement = 3.18

